From: patent US20240317801A1

Task for the reader: assign each of the following compounds its reported pKi.
- target.or.system: Human Recombinant Matriptase 2 (Homo sapiens, UniProt Q8IU80)
- Sequence (Q8IU80 whole entry): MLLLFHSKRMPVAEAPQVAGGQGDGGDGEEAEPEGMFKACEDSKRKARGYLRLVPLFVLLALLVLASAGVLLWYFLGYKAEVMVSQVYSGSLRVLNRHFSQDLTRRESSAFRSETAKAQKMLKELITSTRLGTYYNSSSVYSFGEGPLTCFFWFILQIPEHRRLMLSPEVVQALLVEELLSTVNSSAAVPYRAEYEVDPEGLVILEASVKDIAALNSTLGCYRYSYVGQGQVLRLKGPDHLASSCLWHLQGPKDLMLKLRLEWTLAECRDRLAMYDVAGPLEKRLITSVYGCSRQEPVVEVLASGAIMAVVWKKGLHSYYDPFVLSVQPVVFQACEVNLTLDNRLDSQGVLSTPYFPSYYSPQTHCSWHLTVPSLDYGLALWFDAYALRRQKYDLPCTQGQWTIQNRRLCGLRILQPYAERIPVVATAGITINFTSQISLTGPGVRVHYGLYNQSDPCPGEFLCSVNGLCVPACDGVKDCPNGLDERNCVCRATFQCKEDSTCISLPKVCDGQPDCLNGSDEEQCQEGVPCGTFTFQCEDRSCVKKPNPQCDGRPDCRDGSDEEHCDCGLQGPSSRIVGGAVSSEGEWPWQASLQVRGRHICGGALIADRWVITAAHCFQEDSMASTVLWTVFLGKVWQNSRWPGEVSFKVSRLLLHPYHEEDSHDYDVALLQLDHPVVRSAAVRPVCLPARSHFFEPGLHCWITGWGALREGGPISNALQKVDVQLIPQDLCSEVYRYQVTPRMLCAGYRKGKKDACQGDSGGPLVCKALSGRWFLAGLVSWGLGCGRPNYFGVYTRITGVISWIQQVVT
- measurement.description: Matriptase 2 fluorescence-based inhibition assay (Boc-Gln-Ala-Arg-AMC substrate)
- settings: Ki derived from measured IC50 using Cheng-Prusoff equation; 30 min preincubation, 100 μM substrate, 25° C., pH 7.5; read-out: Mat-2 Ki
pKi: −log10 of the molar value.

C[C@@H](O)[C@H](NC(=O)[C@H](CCc1ccccc1)NC(=O)CCc1ccccc1)C(=O)N[C@@H](CC1CCN(C(=N)N)CC1)C(=O)C(=O)NC1CC1 : 6.00 to 7.00
C[C@H](O)[C@H](NC(=O)[C@H](CCc1ccccc1)NC(=O)OCc1ccccc1)C(=O)N[C@@H](CCCNC(=N)N)C(=O)C(=O)NC(C)(C)C : ≥ 7.00
C[C@@H](O)[C@H](NC(=O)[C@H](Cc1cscn1)NC(=O)CCc1ccccc1)C(=O)N[C@@H](CCCNC(=N)N)C(=O)C(=O)NC1CC1 : ≥ 7.00

Each compound below has a reported value. Please supply its pKi.
1. CCNC(=O)C(=O)C(CCCNC(=N)N)NC(=O)[C@@H](NC(=O)[C@H](CCc1ccccc1)NC(=O)CCc1ccccc1)[C@@H](C)O (some centres unmarked)
2. CC(C)[C@H](NC(=O)[C@H](Cc1cscn1)NC(=O)CCc1ccccc1)C(=O)N[C@@H](CCCNC(=N)N)C(=O)C(=O)NC1CC1
3. CCOC(=O)CNC(=O)C(=O)C(CCCNC(=N)N)NC(=O)[C@@H](NC(=O)C(CCc1ccccc1)NC(=O)CCc1ccccc1)[C@@H](C)O (some centres unmarked)
4. N=C(N)NCCC[C@H](NC(=O)[C@@H]1C[C@@H](OCc2ccccc2)CN1C(=O)[C@H](CCc1ccccc1)NC(=O)CCc1ccccc1)C(=O)C(=O)NC1CC1
5. N=C(N)NCCC[C@H](NC(=O)C1(NC(=O)[C@H](CCc2ccccc2)NC(=O)CCc2ccccc2)CCC1)C(=O)C(=O)NC1CC1

1. ≥ 7.00
2. ≥ 7.00
3. 6.00 to 7.00
4. ≥ 7.00
5. ≥ 7.00

----------
- target.or.system: Human Recombinant Matriptase 2 (Homo sapiens)
- measurement.description: Matriptase 2 fluorescence-based inhibition assay (Boc-Gln-Ala-Arg-AMC substrate)
- settings: Ki derived from measured IC50 using Cheng-Prusoff equation; 30 min preincubation, 100 μM substrate, 25° C., pH 7.5; read-out: Mat-2 Ki
measured.attribute: Ki

As a guide, the following entries are already answered.
CC(C)[C@H](NC(=O)[C@H](Cc1cscn1)NC(=O)CCc1ccccc1)C(=O)N[C@@H](CCCNC(=N)N)C(=O)C(=O)NC(C)(C)C : ≤ 100 nM
CO[C@@H](C)[C@H](NC(=O)C(CCc1ccccc1)NC(=O)OCc1ccccc1)C(=O)NC(CCCNC(=N)N)C(=O)C(=O)NC(C)(C)C (some centres unmarked) : ≤ 100 nM
CNC(=O)C(=O)[C@H](CCCNC(=N)N)NC(=O)[C@@H](NC(=O)[C@H](CCc1ccccc1)NC(=O)CCc1ccccc1)[C@@H](C)O : ≤ 100 nM
C[C@H](O)[C@H](NC(=O)[C@H](CCc1ccccc1)NC(=O)CCc1ccccc1)C(=O)NC(CCCNC(=N)N)C(=O)C(=O)NC(C)(C)C (some centres unmarked) : ≤ 100 nM
CCNC(=O)C(=O)C(Cc1cccc(Cl)c1)NC(=O)[C@@H](NC(=O)[C@H](CCc1ccccc1)NC(=O)CCc1ccccc1)[C@@H](C)O (some centres unmarked) : ≥ 1000 nM
CO[C@H](C)[C@H](NC(=O)[C@H](Cc1cscn1)NC(=O)OC(C)C)C(=O)NC(CCCNC(=N)N)C(=O)C(=O)NC(C)(C)C (some centres unmarked) : ≤ 100 nM
CO[C@H](C)[C@H](NC(=O)C(Cc1cscn1)NC(=O)OCc1ccccc1)C(=O)NC(Cc1ccnc(N)c1)C(=O)C(=O)NC(C)(C)C (some centres unmarked) : ≤ 100 nM
C[C@@H](O)[C@H](NC(=O)[C@H](CCc1ccccc1)NC(=O)CCc1ccccc1)C(=O)N[C@@H](CCCNC(=N)N)C(=O)C(=O)NC1CC1 : ≤ 100 nM

Each compound below has a reported value. Please supply its Ki.
1. C[C@@H](O)[C@H](NC(=O)[C@H](CCc1ccccc1)NC(=O)CCc1ccccc1)C(=O)N[C@@H](CCCNC(=N)N)C(=O)C(=O)N(C)C
2. CC(C)(C)NC(=O)C(=O)[C@H](CCCNC(=N)N)NC(=O)C1COCCN1C(=O)[C@H](Cc1cscn1)NC(=O)OCc1ccccc1 (some centres unmarked)
3. C[C@@H](O)[C@H](NC(=O)[C@H](CCc1ccccc1)NC(=O)CCc1ccccc1)C(=O)NC(CCCNC(=N)N)C(=O)C(=O)NCc1cccnc1 (some centres unmarked)
4. C[C@H](O)[C@H](NC(=O)[C@H](CCc1ccccc1)NC(=O)CCc1ccccc1)C(=O)NC(CCCNC(=N)N)C(=O)C(=O)NC1CC1 (some centres unmarked)
5. C[C@@H](O)[C@H](NC(=O)[C@H](Cc1cscn1)NC(=O)OCc1ccccc1)C(=O)N[C@@H](CCCNC(=N)N)C(=O)C(=O)NC(C)(C)C
6. C[C@@H](O)[C@H](NC(=O)[C@H](Cc1cscn1)NC(=O)CCc1ccccc1)C(=O)N[C@@H](CCCNC(=N)N)C(=O)C(=O)NC(C)(C)C
7. C[C@H](O)[C@H](NC(=O)[C@H](CCc1ccccc1)NC(=O)CCc1ccccc1)C(=O)N[C@@H](CCCNC(=N)N)C(=O)C(=O)N[C@@H]1C[C@@H]1F
8. C[C@@H](O)[C@H](NC(=O)[C@H](Cc1ccc(F)cc1)NC(=O)OCc1ccccc1)C(=O)NC(CCCNC(=N)N)C(=O)C(=O)NC(C)(C)C (some centres unmarked)

1: ≥ 1000 nM; 2: ≤ 100 nM; 3: ≤ 100 nM; 4: ≤ 100 nM; 5: ≤ 100 nM; 6: ≤ 100 nM; 7: ≤ 100 nM; 8: ≤ 100 nM

Each compound below has a reported value. Please supply its Ki.
1. C[C@@H](O)[C@H](NC(=O)[C@H](Cc1cccnc1)NC(=O)OCc1ccccc1)C(=O)NC(CCCNC(=N)N)C(=O)C(=O)NC(C)(C)C (some centres unmarked)
2. CC(C)(C)NC(=O)C(=O)[C@H](CCCNC(=N)N)NC(=O)C1C[C@@H](O)CN1C(=O)[C@H](Cc1cscn1)NC(=O)OCc1ccccc1 (some centres unmarked)

1. ≤ 100 nM
2. ≤ 100 nM
